The origin of these recorded values is ChEMBL document CHEMBL5058577.

Listing of entries alongside the reported Population Healthy Nuclei (%).
Test system: Fibroblast
test-name: Multiplex assay against human fibroblast
Format: toxicity, cell-based
cond: 12 h, 10 µM, compound concentration 10 uM, replicate 2
Answer format: numeric, % implied, no suffix.

molecule	Population Healthy Nuclei (%)
CC(C)(C)c1ccc(CSc2cnn(C(C)(C)C)c(=O)c2Cl)cc1 [PYRIDABEN]	49

Field Population Healthy Nuclei (%) (system: Fibroblast) for entry `OCCCNc1cc(-c2ccnc(Nc3cccc(Cl)c3)n2)ccn1` = 24

Field Population Healthy Nuclei (%) (system: Fibroblast) for entry Cc1cc(NC(=O)NCCN2CCC(O)(Cc3ccccc3)CC2)c2ccccc2n1 [PALOSURAN] = 49

Field Population Healthy Nuclei (%) (system: Fibroblast) for entry O=c1nc2[nH]c3ccccc3nc-2c(=O)[nH]1 [ALLOXAZINE] = 38

* * *

Listing of entries alongside the reported Population Mitochondria Different-Phenotype (%).
System: HEK-293T
test-name: Multiplex assay against HEK293T
Format: toxicity, cell-based
cond: human, 48 h, 1 µM, compound concentration 1 uM, replicate 2
Answer format: numeric, % implied, no suffix.

Past entries and their recorded results:
> print(dat)
                                   compound  readout.value
1  Cc1ccc(OCC(O)C(C)NC(C)C)c2c1CCC2.Cl (stereo not given)             27
2  CN(C)C(=O)Cn1cc(-c2ccc(-c3nnc4ccccn34)cc2)cn1             22
3  CCCCCCNC(=O)Nc1ccc(S(=O)(=O)Nc2ccc(CCNC[C@H](O)COc3ccc(O)cc3)cc2)cc1             24

Field Population Mitochondria Different-Phenotype (%) (system: HEK-293T) for entry `Cc1sc2c(c1C)C(c1ccc(Cl)cc1)=N[C@H](CC(=O)OC(C)(C)C)c1nnc(C)n1-2` = 21

Field Population Mitochondria Different-Phenotype (%) (system: HEK-293T) for entry `Cc1nn(C)c2nc(NNC(=O)Nc3cc(Cl)nc(Cl)c3)cc(C(C)C)c12` = 25

* * *

Listing of entries alongside the reported Population Mitochondria Different-Phenotype (%).
Tested on: U2OS
test-name: Multiplex assay against U2OS
Assay type: toxicity, cell-based
cond: human, 48 h, 10 µM, compound concentration 10 uM, replicate 1
Answer format: numeric, % implied, no suffix.

Past entries and their recorded results:
molecule	readout-value
Cc1cc(O)c(-c2ccc([C@@H](C)CN(C)C)cc2)c2c1[nH]c(=O)c1sccc12	45
O=C(O)CCC/C=C\CC1C(O)CC(O)C1/C=C/C(O)COc1cccc(Cl)c1 (configuration not stated) [CLOPROSTENOL]	1
CCCCC[C@H](O)/C=C/[C@H]1[C@H](O)CC(=O)[C@@H]1CCCCCCC(=O)O [ALPROSTADIL]	0
CN(C)C(=O)Cn1cc(-c2ccc(-c3nnc4ccccn34)cc2)cn1	4

The recorded Population Mitochondria Different-Phenotype (%) for entry `OCCCNc1cc(-c2ccnc(Nc3cccc(Cl)c3)n2)ccn1` equals 45

The recorded Population Mitochondria Different-Phenotype (%) for entry Cc1c(Cc2ccc3ccccc3n2)c2cc(F)ccc2n1CC(=O)O [TIMAPIPRANT] equals 1

The recorded Population Mitochondria Different-Phenotype (%) for entry `N[C@](CC1c2ccccc2Oc2ccccc21)(C(=O)O)[C@H]1C[C@@H]1C(=O)O` equals 3

The recorded Population Mitochondria Different-Phenotype (%) for entry COc1ccc2c(c1OCc1ccccc1)C[C@@H](C(=O)O)N(C(=O)C(c1ccccc1)c1ccccc1)C2 [OLODANRIGAN] equals 1

The recorded Population Mitochondria Different-Phenotype (%) for entry `COCCn1c(C)c(C)s/c1=N\C(=O)C1C(C)(C)C1(C)C` equals 4

The recorded Population Mitochondria Different-Phenotype (%) for entry CC(C)(C)c1ccc(CSc2cnn(C(C)(C)C)c(=O)c2Cl)cc1 [PYRIDABEN] equals 4
